test system: foxtail, giant (giant foxtail, Setaria faberi); test: Test C preemergence, giant foxtail; format: in vivo; details: 31 g ai/ha Preemergence; 0 is no effect, 100 is complete control
Text: […]
readout name: Plant response rating (0 to 100 scale), Foxtail, Giant

{"compound": "Cc1c(N2CCC(OC3CC3)C2=O)cc(N(C(=O)OCC(C)C)S(=O)(=O)C(F)(F)F)c(C)c1C (stereo not shown) [Compound 50]", "assay value": 50}
{"compound": "Cc1c(N2CCCC(OC3CC3)C2=O)cc(N(COC(=O)C(C)(C)C)S(=O)(=O)C(F)(F)F)c(C)c1F (stereo not shown) [Compound 37]", "assay value": 20}
{"compound": "C=CCO/N=C1\\CCN(c2cc(NS(=O)(=O)C(F)(F)F)c(C)cc2C)C1=O [Compound 11]", "assay value": 100}
{"compound": "COC(=O)N(c1cc(N2CCC(OC3CC3)C2=O)c(C)cc1Cl)S(=O)(=O)C(F)(F)F (stereo not shown) [Compound 40]", "assay value": 100}
{"compound": "Cc1cc(C)c(N(COC(=O)C(C)(C)C)S(=O)(=O)C(F)(F)F)cc1N1CCC(OCC2CC2)C1=O (stereo not shown) [Compound 53]", "assay value": 10}
{"compound": "Cc1c(NS(=O)(=O)C(F)(F)F)cc(N2CCCC(OC3CC3)C2=O)c(C)c1F (stereo not shown) [Compound 35]", "assay value": 90}
{"compound": "Cc1cc(C)c(N2CCC(OCc3ccccc3)C2=O)cc1NS(=O)(=O)C(F)(F)F (stereo not shown) [Compound 61]", "assay value": 100}
{"compound": "Cc1cc(C)c(N2CCC(OCC3CCCC3)C2=O)cc1NS(=O)(=O)C(F)(F)F (stereo not shown) [Compound 57]", "assay value": 80}
{"compound": "CC(=O)N(c1cc(N2CCC(OC3CC3)C2=O)c(C)cc1Cl)S(=O)(=O)C(F)(F)F (stereo not shown) [Compound 38]", "assay value": 80}
{"compound": "Cc1c(NS(=O)(=O)C(F)(F)F)cc(N2CCC(OCC3CC3)C2=O)c(C)c1F (stereo not shown) [Compound 63]", "assay value": 100}
{"compound": "Cc1cc(C)c(N2CCC(OC3CC3)C2=O)cc1NS(=O)(=O)C(F)(F)F (single isomer, unassigned) [Compound 30]", "assay value": 100}
{"compound": "COC(=O)N(c1cc(N2CCC(OC3CC3)C2=O)c(C)cc1C)S(=O)(=O)C(F)(F)F (stereo not shown) [Compound 16]", "assay value": 0}
{"compound": "Cc1cc(C)c(N2CCC(OCC3CCC3)C2=O)cc1NS(=O)(=O)C(F)(F)F (stereo not shown) [Compound 43]", "assay value": 30}
{"compound": "Cc1c(N2CCCC(OC3CCC3)C2=O)cc(N(COC(=O)C(C)(C)C)S(=O)(=O)C(F)(F)F)c(C)c1F (stereo not shown) [Compound 39]", "assay value": 0}
{"compound": "CO/N=C1\\CCN(c2cc(NS(=O)(=O)C(F)(F)F)c(C)cc2C)C1=O [Compound 9]", "assay value": 100}
{"compound": "Cc1c(N2CCC(OC3CCC3)C2=O)cc(N(COC(=O)C(C)(C)C)S(=O)(=O)C(F)(F)F)c(C)c1C (stereo not shown) [Compound 51]", "assay value": 10}

* * *

tested on: ragweed (common ragweed, Ambrosia artemisiifolia); assay: Test A preemergence, ragweed; assay type: in vivo; conditions: pre-emergence, 240 h, 31 g ai/ha, 0 to 100 scale, 10 days, read-out: Plant response rating, Ragweed
Reported pest or weed control at 31 g/ha values for a set of compounds

{"compound": "Cc1cc(C)c(N2CCC(OC3CCCC3)C2=O)cc1NS(=O)(=O)C(F)(F)F (centres unmarked) [Compound 6]", "pest or weed control at 31 g/ha [%]": 30}
{"compound": "Cc1cc(C)c(N(COC(=O)C(C)(C)C)S(=O)(=O)C(F)(F)F)cc1N1CCC(OC2CCC2)C1=O (centres unmarked) [Compound 8]", "pest or weed control at 31 g/ha [%]": 20}
{"compound": "Cc1cc(C)c(N2CCC(OC3CCC3)C2=O)cc1NS(=O)(=O)C(F)(F)F (centres unmarked) [Compound 4]", "pest or weed control at 31 g/ha [%]": 90}
{"compound": "C#CCOC1CCN(c2cc(NS(=O)(=O)C(F)(F)F)c(C)cc2C)C1=O (centres unmarked) [Compound 1]", "pest or weed control at 31 g/ha [%]": 30}
{"compound": "Cc1cc(C)c(N(COC(=O)C(C)(C)C)S(=O)(=O)C(F)(F)F)cc1N1CCC(OC2CC2)C1=O (centres unmarked) [Compound 7]", "pest or weed control at 31 g/ha [%]": 30}
{"compound": "Cc1cc(C)c(N(COC(=O)C(C)(C)C)S(=O)(=O)C(F)(F)F)cc1N1CCC(OC2CCCC2)C1=O (centres unmarked) [Compound 5]", "pest or weed control at 31 g/ha [%]": 0}
{"compound": "C=CCOC1CCN(c2cc(NS(=O)(=O)C(F)(F)F)c(C)cc2C)C1=O (centres unmarked) [Compound 2]", "pest or weed control at 31 g/ha [%]": 20}
{"compound": "Cc1cc(C)c(N2CCC(OC3CC3)C2=O)cc1NS(=O)(=O)C(F)(F)F (centres unmarked) [Compound 3]", "pest or weed control at 31 g/ha [%]": 90}

* * *

tested on: foxtail, giant (giant foxtail, Setaria faberi); assay: Test C preemergence, giant foxtail; format: in vivo; settings: 125 g ai/ha Preemergence; 0 is no effect, 100 is complete control
Reported Plant response rating (0 to 100 scale), Foxtail, Giant values for a set of molecules
readout name: Plant response rating (0 to 100 scale), Foxtail, Giant

{"molecule": "CC(=O)N(c1cc(N2CCC(OC3CC3)C2=O)c(C)cc1Cl)S(=O)(=O)C(F)(F)F (centres unmarked)", "assay value": 100}
{"molecule": "C#CC(C)OC1CCN(c2cc(NS(=O)(=O)C(F)(F)F)c(C)cc2C)C1=O (centres unmarked)", "assay value": 100}
{"molecule": "Cc1cc(C)c(N(COC(=O)C(C)(C)C)S(=O)(=O)C(F)(F)F)cc1N1CCC(OCC2CCC2)C1=O (centres unmarked)", "assay value": 80}
{"molecule": "Cc1c(N2CCCC(OC3CC3)C2=O)cc(N(COC(=O)C(C)(C)C)S(=O)(=O)C(F)(F)F)c(C)c1F (centres unmarked)", "assay value": 90}
{"molecule": "Cc1c(NS(=O)(=O)C(F)(F)F)cc(N2CCCC(OC3CC3)C2=O)c(C)c1F (centres unmarked)", "assay value": 100}
{"molecule": "Cc1cc(C)c(N2CCC(OCC3CCC3)C2=O)cc1NS(=O)(=O)C(F)(F)F (centres unmarked)", "assay value": 100}
{"molecule": "CCO/N=C1\\CCN(c2cc(NS(=O)(=O)C(F)(F)F)c(C)cc2C)C1=O", "assay value": 100}
{"molecule": "COC(=O)N(c1cc(N2CCC(OC3CC3)C2=O)c(C)cc1Cl)S(=O)(=O)C(F)(F)F (centres unmarked)", "assay value": 100}

* * *

system: soybean (Glycine max); assay: Test C preemergence, soybean; type: in vivo; settings: 31 g ai/ha Preemergence; 0 is no effect, 100 is complete control
readout name: Plant response rating (0 to 100 scale), Soybean

{"compound": "Cc1cc(C)c(N(C(=O)OCC(C)C)S(=O)(=O)C(F)(F)F)cc1N1CCC(OC2CC2)C1=O (stereo not shown) [Compound 21]", "system tested": "soybean (Glycine max)", "assay value": 0}
{"compound": "Cc1cc(C)c(N2CCC(OC3CC3)C2=O)cc1NS(=O)(=O)C(F)(F)F (single isomer, unassigned) [Compound 29]", "system tested": "soybean (Glycine max)", "assay value": 90}
{"compound": "Cc1cc(C)c(N2CCC(OCC3CCCO3)C2=O)cc1NS(=O)(=O)C(F)(F)F (stereo not shown) [Compound 42]", "system tested": "soybean (Glycine max)", "assay value": 0}
{"compound": "Cc1cc(C)c(N2CC/C(=N\\O)C2=O)cc1NS(=O)(=O)C(F)(F)F [Compound 10]", "system tested": "soybean (Glycine max)", "assay value": 60}

* * *

system: foxtail, giant (giant foxtail, Setaria faberi); test: Test C preemergence, giant foxtail; format: in vivo; conditions: 125 g ai/ha Preemergence; 0 is no effect, 100 is complete control
From the text: […]
Reported Plant response rating (0 to 100 scale), Foxtail, Giant values for a set of molecules
readout name: Plant response rating (0 to 100 scale), Foxtail, Giant

{"molecule": "Cc1c(NS(=O)(=O)C(F)(F)F)cc(N2CCC(OCC3CCC3)C2=O)c(C)c1F (stereo not shown)", "assay value": 100}
{"molecule": "Cc1cc(C)c(N2CCC(OC3CC3)C2=O)cc1NS(=O)(=O)C(F)(F)F (single isomer, unassigned) [Compound 29]", "assay value": 100}
{"molecule": "Cc1cc(C)c(N(C(=O)OC(C)C)S(=O)(=O)C(F)(F)F)cc1N1CCC(OC2CC2)C1=O (stereo not shown)", "assay value": 0}
{"molecule": "Cc1cc(C)c(N(COC(=O)C(C)(C)C)S(=O)(=O)C(F)(F)F)cc1N1CCC(OCC2CC2)C1=O (stereo not shown)", "assay value": 90}
